Listed here are variants together with their documented protein stability index.
B1: ZNF8 (parent)
chain: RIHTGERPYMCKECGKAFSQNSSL

Variants of: B1
experimentNotes: protein stability index of a GFP-peptide fusion (GPS, HEK-293T) (PSI 1-6); higher = more stable;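 note: lentivirally expressed fusions sorted by FACS into six bins by GFP to DsRed ratio, PSI derived from sequencing read proportions per bin multiplied by bin number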
conditionDetails: c terminus: a fixed tail appended
Please give the numeric answer without any surrounding text.

GET /values?readout=protein stability index&item= E6N
2.24

Further cases:
GET /values?readout=protein stability index&item= L24W
2.73

GET /values?readout=protein stability index&item= F18S
3.57

GET /values?readout=protein stability index&item= S22G
2.68

GET /values?readout=protein stability index&item= M10N
2.12

GET /values?readout=protein stability index&item= E13Y
1.92

GET /values?readout=protein stability index&item= E6I
1.68

GET /values?readout=protein stability index&item= E13R
1.87

GET /values?readout=protein stability index&item= E13M
2.05
